# IC50 values compiled below
- Tested Target: Adenosine A2A receptor (Homo sapiens)
- Sequence (P29274 whole entry): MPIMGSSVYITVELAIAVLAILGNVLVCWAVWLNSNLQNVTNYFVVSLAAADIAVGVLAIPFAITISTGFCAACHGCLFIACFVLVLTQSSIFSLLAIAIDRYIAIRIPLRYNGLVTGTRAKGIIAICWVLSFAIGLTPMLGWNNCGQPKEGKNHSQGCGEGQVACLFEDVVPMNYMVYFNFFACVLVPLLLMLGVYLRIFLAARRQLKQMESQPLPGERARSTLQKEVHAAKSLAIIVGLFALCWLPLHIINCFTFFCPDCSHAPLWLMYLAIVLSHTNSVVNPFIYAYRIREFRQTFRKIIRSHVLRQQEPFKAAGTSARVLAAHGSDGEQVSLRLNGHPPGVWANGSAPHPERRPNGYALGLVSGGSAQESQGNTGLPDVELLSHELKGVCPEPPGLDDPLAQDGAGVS
- Assay Text: cAMP assay in 293A cells stably expressing the adenosine A2A receptor (CGS21680 stimulation, HTRF)
- Format: cell-based
- Design: expressed in transfected cells; host or cells: 293A cells (Invitrogen, Cat# R705-07) infected with A2A-expressing lentivirus (custom packaged by Biosettia), puromycin selected
- Setup Conditions: 293A-A2AR cells, 0.1% BSA, 8 nM CGS; values separated by / are repeat determinations; read-out: cAMP (nM) 0.1% BSA, 8 nM CGS
Quick reminder: number only, in nM, skip the unit.

# Compound, Value Measured
rows = [
    ("Cc1cc(-c2c(OCC3(CO)CCOCC3)nc(N)nc2-c2ccc(F)cc2)cc(C(F)F)n1 [Example 125]", 8.7),
    ("COC(=O)N1CCN(CCOc2nc(N)nc(-c3ccc(F)cc3)c2-c2cc(C)nc(C(F)F)c2)CC1 [Example 51]", 3.9),
]

State its IC50: Cc1cc(-c2c(OCc3ncc(C#N)n3C(C)C)nc(N)nc2-c2ccc(F)cc2)cc(C(F)F)n1 [Example 191]
12

Tell me IC50 reported for CCN(CCOc1nc(N)nc(-c2ccc(F)cc2)c1-c1cc(C)nc(C(F)F)c1)c1ncccn1 [Example 146]
5.6

Report IC50 for Cc1cc(-c2c(OCCc3ccc(OC4CCN(S(C)(=O)=O)C4)cc3)nc(N)nc2-c2ccc(F)cc2)cc(C(F)F)n1 (stereo not shown) [Example 66]
337

Quick one: give measured IC50 for CCN(CC)C(=O)COc1nc(N)nc(-c2ccccc2)c1-c1cc(C)nc(C(C)(F)F)c1 [Example 16]
6.5

Specify IC50 for COC(=O)NCc1nc(N)nc(-c2ccc(F)cc2)c1-c1cc(C)nc(C(F)F)c1 [Example 103] and stop.
11
